SYSTEM NAME: Histone deacetylase 9 (Homo sapiens)
Sequence (Q9UKV0 whole entry): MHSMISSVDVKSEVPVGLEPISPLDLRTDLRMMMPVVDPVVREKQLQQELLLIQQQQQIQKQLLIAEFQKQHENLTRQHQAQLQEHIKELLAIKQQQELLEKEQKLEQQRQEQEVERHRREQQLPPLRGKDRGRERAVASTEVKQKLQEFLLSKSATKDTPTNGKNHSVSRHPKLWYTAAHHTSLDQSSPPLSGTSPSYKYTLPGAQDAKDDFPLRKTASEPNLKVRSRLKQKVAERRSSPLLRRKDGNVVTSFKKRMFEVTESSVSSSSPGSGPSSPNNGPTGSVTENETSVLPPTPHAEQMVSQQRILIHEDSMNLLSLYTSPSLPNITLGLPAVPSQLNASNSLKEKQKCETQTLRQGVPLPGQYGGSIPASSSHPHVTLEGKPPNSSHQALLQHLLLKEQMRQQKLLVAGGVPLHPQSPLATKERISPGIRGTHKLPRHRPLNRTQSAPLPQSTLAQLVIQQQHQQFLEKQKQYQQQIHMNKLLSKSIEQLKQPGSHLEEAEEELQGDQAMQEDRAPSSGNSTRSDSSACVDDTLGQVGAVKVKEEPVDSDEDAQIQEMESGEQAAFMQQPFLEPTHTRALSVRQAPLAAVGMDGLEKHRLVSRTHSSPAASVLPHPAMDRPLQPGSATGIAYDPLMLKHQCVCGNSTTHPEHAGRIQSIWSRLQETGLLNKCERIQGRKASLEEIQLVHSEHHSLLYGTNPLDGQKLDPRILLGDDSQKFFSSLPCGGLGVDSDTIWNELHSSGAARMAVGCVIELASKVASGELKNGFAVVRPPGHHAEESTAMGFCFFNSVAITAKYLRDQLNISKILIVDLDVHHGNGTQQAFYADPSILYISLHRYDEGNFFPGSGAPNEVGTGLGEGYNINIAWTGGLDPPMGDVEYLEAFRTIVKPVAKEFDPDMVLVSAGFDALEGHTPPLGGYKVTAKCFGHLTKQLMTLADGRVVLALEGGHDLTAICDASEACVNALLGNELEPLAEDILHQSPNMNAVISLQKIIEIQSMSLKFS
pIC50: −log10 of the molar value.
REPORTED ENDPOINT: pIC50

Ask: # lookup: pIC50 of "O=C(NO)c1ccc(CCN2C(=O)c3cccc4c(N5CCOCC5)ccc(c34)C2=O)cc1"
Result: < 4.52

====

SYSTEM NAME: UniProt Q969S8
Sequence (Q969S8 whole entry): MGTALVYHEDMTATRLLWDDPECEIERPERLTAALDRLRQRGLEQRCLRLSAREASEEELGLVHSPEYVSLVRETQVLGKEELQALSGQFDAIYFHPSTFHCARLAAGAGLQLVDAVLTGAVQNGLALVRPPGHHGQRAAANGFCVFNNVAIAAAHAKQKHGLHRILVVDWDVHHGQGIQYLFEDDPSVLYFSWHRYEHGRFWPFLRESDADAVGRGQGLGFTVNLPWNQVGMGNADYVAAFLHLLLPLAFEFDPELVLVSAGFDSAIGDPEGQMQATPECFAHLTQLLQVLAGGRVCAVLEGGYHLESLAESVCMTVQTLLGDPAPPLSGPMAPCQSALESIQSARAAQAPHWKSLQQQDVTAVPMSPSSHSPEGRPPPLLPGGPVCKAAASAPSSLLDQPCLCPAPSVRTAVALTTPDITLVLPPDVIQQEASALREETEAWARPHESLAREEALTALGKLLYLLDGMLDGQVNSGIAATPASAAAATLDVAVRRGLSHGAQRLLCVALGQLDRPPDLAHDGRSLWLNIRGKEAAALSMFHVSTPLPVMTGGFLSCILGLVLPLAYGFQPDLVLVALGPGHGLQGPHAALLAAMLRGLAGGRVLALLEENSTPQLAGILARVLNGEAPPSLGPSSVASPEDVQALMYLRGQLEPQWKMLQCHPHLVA
REPORTED ENDPOINT: IC50 (nM)
Give bare numbers, in nM.

Ask: Endpoint output: IC50 of "O=C(NO)c1ccc(CCN2C(=O)c3cccc4c(N5CCOCC5)ccc(c34)C2=O)cc1" . Value?
Result: 1870

====

SYSTEM NAME: Histone deacetylase 3 (Homo sapiens)
Sequence (O15379 whole entry): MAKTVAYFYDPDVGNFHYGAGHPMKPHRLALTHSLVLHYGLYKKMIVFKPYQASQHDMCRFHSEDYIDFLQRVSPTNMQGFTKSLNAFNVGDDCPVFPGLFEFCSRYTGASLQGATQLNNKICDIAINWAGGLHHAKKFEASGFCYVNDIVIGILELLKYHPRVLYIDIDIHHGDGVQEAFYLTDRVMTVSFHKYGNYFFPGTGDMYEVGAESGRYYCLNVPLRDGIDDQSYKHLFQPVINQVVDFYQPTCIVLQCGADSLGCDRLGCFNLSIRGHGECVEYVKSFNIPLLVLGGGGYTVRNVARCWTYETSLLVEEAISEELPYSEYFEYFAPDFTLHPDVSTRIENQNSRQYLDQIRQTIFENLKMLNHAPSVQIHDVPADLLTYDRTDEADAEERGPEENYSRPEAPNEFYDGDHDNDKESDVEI
METHOD DESCRIPTION: Inhibition of human recombinant full-length C-terminal GST-tagged HDAC3 expressed in baculovirus infected Sf9 cells using Boc-Lys(acetyl)-AMC as substrate after 30 mins by fluorescence assay
REPORTED ENDPOINT: IC50 (nM)
Numbers only, in nM.

In [3]: df
Out[3]:
                                   compound  reported_endpoint  unit_abbrev  reported_result
0  O=C(CCCCCN1C(=O)c2cccc3c(N4CCOCC4)ccc(c23)C1=O)NO               IC50           nM             2.65

Ask: # input compound: "O=C(NO)c1ccc(CN2C(=O)c3cccc4c(N5CCOCC5)ccc(c34)C2=O)cc1" ; wanted: its IC50
Result: 11.1

====

SYSTEM NAME: Histone deacetylase 11 (Homo sapiens)
Sequence (Q96DB2 whole entry): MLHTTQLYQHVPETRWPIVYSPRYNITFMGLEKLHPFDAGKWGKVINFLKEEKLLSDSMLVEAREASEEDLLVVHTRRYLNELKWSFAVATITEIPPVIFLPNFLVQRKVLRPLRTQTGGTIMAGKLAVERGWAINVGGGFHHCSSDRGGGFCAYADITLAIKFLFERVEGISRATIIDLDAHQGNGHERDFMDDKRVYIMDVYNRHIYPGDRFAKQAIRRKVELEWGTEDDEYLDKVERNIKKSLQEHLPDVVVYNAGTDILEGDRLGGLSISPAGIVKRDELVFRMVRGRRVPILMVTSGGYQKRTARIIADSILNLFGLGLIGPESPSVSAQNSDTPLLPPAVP
REPORTED ENDPOINT: IC50

Ask: Param readout = IC50; param system = Histone deacetylase 11 (Homo sapiens); param query = "O=C(NO)c1ccc(CCN2C(=O)c3cccc4c(N5CCOCC5)ccc(c34)C2=O)cc1" ; response: value
Result: > 10 µM

====

SYSTEM NAME: Histone deacetylase 2 (Homo sapiens)
Sequence (Q92769 whole entry): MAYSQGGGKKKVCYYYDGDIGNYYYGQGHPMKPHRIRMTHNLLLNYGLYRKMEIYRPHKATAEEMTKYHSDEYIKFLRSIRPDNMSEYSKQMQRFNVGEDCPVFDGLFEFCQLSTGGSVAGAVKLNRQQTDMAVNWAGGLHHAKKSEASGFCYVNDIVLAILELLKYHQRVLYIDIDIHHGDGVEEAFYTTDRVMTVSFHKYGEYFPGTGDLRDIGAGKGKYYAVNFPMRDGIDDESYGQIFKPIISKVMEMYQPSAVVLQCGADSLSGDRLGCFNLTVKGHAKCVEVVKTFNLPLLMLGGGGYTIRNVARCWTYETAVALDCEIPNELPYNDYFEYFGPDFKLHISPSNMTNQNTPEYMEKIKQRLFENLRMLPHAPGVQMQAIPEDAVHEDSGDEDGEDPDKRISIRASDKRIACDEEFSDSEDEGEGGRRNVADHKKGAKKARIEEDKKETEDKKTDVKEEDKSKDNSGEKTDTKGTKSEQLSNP
METHOD DESCRIPTION: Inhibition of human recombinant full-length C-terminal GST-tagged HDAC2 expressed in baculovirus infected Sf9 cells using Boc-Lys(acetyl)-AMC as substrate after 30 mins by fluorescence assay
Format: cell-based
Can you tell me IC50 for the items I'm about to list?

Example results:
                                   compound                           system_name  reported_result
0  O=C(NO)c1ccc(CCN2C(=O)c3cccc4c(N5CCOCC5)ccc(c34)C2=O)cc1  Histone deacetylase 2 (Homo sapiens)      > 100000 nM
1  O=C(CCCCCN1C(=O)c2cccc3c(N4CCOCC4)ccc(c23)C1=O)NO  Histone deacetylase 2 (Homo sapiens)          25.6 nM

Ask: Bench note: what IC50 did "O=C(NO)c1ccc(CN2C(=O)c3cccc4c(N5CCOCC5)ccc(c34)C2=O)cc1" show?
Result: 98.8 nM

====

SYSTEM NAME: UniProt Q13547
Sequence (Q13547 whole entry, the tested form may be a part): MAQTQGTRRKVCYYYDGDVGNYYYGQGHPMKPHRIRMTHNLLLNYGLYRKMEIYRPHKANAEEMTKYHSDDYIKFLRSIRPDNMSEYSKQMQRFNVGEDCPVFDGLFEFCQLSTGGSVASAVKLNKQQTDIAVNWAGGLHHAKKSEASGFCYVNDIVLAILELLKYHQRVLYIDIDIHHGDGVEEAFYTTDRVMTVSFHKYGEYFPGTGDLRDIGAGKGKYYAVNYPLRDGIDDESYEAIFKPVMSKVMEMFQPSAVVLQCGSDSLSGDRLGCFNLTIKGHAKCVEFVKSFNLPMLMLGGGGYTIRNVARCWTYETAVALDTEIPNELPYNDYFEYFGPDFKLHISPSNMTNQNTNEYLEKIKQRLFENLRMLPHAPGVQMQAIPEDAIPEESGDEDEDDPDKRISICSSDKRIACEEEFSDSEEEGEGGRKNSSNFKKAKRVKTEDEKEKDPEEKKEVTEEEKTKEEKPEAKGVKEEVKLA
METHOD DESCRIPTION: Inhibition of human recombinant full-length HDAC1 (1 to 482 residues) expressed in baculovirus using Boc-Lys(acetyl)-AMC as substrate after 30 mins by fluorescence assay
REPORTED ENDPOINT: IC50 (nM)
Give bare numbers, in nM.

Report IC50 for every entry below.
1. O=C(NO)c1ccc(CN2C(=O)c3cccc4c(N5CCOCC5)ccc(c34)C2=O)cc1
2. O=C(CCCCCN1C(=O)c2cccc3c(N4CCOCC4)ccc(c23)C1=O)NO

Result:
[36.2, 5.25]
